target: recombinant human PAD4 (human, UniProt Q9UM07 1-663); test: cell-based or functional assay
Sequence (Q9UM07 whole entry): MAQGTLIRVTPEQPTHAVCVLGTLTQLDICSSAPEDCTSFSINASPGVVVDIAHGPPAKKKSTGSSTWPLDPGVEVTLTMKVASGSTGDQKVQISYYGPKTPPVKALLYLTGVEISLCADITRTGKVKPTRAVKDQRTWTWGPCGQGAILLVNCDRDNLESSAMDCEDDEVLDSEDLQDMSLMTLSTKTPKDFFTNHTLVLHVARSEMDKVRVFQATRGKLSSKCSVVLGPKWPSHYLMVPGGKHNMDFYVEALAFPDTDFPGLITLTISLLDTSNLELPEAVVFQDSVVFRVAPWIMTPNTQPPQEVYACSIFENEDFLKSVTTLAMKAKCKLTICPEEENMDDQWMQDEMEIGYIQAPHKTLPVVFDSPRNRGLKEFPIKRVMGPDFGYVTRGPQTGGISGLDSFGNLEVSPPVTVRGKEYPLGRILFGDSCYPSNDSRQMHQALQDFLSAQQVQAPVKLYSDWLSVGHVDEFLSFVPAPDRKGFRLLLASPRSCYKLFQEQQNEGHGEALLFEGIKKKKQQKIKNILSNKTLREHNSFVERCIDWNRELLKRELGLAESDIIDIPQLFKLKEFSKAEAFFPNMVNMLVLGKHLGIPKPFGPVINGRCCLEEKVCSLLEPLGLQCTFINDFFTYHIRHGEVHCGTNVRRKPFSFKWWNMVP
Square brackets hold non-standard residues; d marks the D form. Orn(fluoroacetimidoyl) = N=C(CF)NCCC[C@H](N)C(=O)O
quantity measured: conversion of 0708-30 by PAD4, 50 µM inhibitor (%)
Numbers only, in %.

Task: Any idea what conversion of 0708-30 by PAD4, 50 µM inhibitor was measured for Ac-FFDSHKFD[Orn(fluoroacetimidoyl)]DFIYSD-NH2 (SMILES CC[C@H](C)[C@H](NC(=O)[C@H](Cc1ccccc1)NC(=O)[C@H](CC(=O)O)NC(=O)[C@H](CCCNC(=N)CF)NC(=O)[C@H](CC(=O)O)NC(=O)[C@H](Cc1ccccc1)NC(=O)[C@H](CCCCN)NC(=O)[C@H](Cc1c[nH]cn1)NC(=O)[C@H](CO)NC(=O)[C@H](CC(=O)O)NC(=O)[C@H](Cc1ccccc1)NC(=O)[C@H](Cc1ccccc1)NC(C)=O)C(=O)N[C@@H](Cc1ccc(O)cc1)C(=O)N[C@@H](CO)C(=O)N[C@@H](CC(=O)O)C(N)=O) [0741-03FA] ?
Output: 12

Data origin: patent US20110142868A1
